Give measured koff for each item. Keep answers brief.
# TARGET_ENTITY: T1, serum purified human Complement Factor D (human, UniProt P00746 26-253)
# T1 construct: Serum purified protein flowed over the captured antibodies; also called CFD; human CFD
# MEASUREMENT_NOTES: SPR Biacore, antibody on protein A chip, single cycle kinetics, 25 C;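 further: antibodies captured to roughly 70 RU on the protein A surface in HBS-EP+ running buffer, with kinetic constants derived by BIAevaluation fitting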
Give bare numbers, in s⁻¹.

# count of solved cases: 2
54I59D84T / 32W60W101V (antibody, V domains shown, KCD119 TAF variant; full antibody captured on protein A) VH: EVQLVESGGGLVQPGGSLRLSCAASGYTFTDYYMNWVRQAPGKGLEWIGDINPITGDTDYNADFKRRFTFSLDTSKSTAYLQMTSLRAEDTAVYYCTREGPSFAYWGQGTLVTVSS VL: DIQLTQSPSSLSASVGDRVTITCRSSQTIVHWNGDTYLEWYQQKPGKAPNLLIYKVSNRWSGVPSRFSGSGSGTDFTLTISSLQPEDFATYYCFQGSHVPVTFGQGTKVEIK    8.43e-05
31S54I59D84T / 32W60W101V (antibody, V domains shown, KCD119 TAF variant; full antibody captured on protein A) VH: EVQLVESGGGLVQPGGSLRLSCAASGYTFTSYYMNWVRQAPGKGLEWIGDINPITGDTDYNADFKRRFTFSLDTSKSTAYLQMTSLRAEDTAVYYCTREGPSFAYWGQGTLVTVSS VL: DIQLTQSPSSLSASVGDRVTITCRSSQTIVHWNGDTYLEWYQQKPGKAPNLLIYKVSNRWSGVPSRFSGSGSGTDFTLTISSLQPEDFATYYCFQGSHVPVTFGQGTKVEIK    6.01e-05

Consider now this further binder.
For the binder shown here, 34I54I59D / 32W60W101V (antibody, V domains shown, KCD119 TAF variant; full antibody captured on protein A) VH: EVQLVESGGGLVQPGGSLRLSCAASGYTFTDYYINWVRQAPGKGLEWIGDINPITGDTDYNADFKRRFTFSLDTSKSTAYLQMNSLRAEDTAVYYCTREGPSFAYWGQGTLVTVSS VL: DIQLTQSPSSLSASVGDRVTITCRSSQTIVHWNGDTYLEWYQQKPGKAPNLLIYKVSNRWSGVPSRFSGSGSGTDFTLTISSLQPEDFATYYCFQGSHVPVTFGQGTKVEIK , give the reported koff.
0.000136
